Data credit: patent US20230020663A1

tested on: human CTPS1 versus CTPS2; experiment: Human CTPS1 versus CTPS2 selectivity assessment by RapidFire/MS analysis; format: biochemical; settings: Table 26; RapidFire/MS IC50 ratio
Metric Name: Selectivity (fold selectivity between CTPS1 and CTPS2)

Answered cases to consult:
# Compound, Result
records = [
    ("CC(C)(C(=O)Nc1ccc(-c2cncc(C3CC3)n2)cn1)c1ccnc(NS(=O)(=O)C2CC2)n1 [Example P125]", "++ (>30-60 fold (++))"),
    ("CCC(C(=O)Nc1ccc(-c2cncc(OCC(F)(F)F)n2)cc1)c1ccnc(NS(=O)(=O)C2CC2)n1 (stereo not drawn) [Example P108]", "+++ (>60 fold (+++))"),
    ("CCOc1cncc(-c2ccc(NC(=O)C(CC)c3ccnc(NS(=O)(=O)C4CC4)n3)nc2)n1 (stereo not drawn) [Example P88]", "+++ (>60 fold (+++))"),
    ("CCOc1cncc(-c2ccc(NC(=O)C(C)(C)c3nc(NS(=O)(=O)C4CC4)ncc3C)cc2)n1 [Example P70]", "+ (2-30 fold (+))"),
    ("CCOc1cncc(-c2ccc(NC(=O)C(C)(CC)c3ccnc(NS(=O)(=O)C4CC4)n3)nc2)n1 (stereo not drawn) [Example P163]", "+++ (>60 fold (+++))"),
]

Then this compound:
[in] I am curious: what Selectivity (fold selectivity between CTPS1 and CTPS2) value has been reported for CCOc1cncc(-c2ccc(NC(=O)C(C)(C)c3ccnc(NS(=O)(=O)C4CC4)n3)nc2)n1 [Example P31] ?
[out] +++ (>60 fold (+++))

----------
system: human CTPS1 versus CTPS2; test: Human CTPS1 versus CTPS2 selectivity assessment by RapidFire/MS analysis; assay type: biochemical; conditions: Table 26; RapidFire/MS IC50 ratio
Metric Name: Selectivity (fold selectivity between CTPS1 and CTPS2)

Answered cases to consult:
# Compound, Result
records = [
    ("CC(C)Oc1cncc(-c2ccc(NC(=O)Cc3ccnc(NS(=O)(=O)C4CC4)n3)c(F)c2)n1 [Example P12]", "++ (>30-60 fold (++))"),
    ("CCC(C(=O)Nc1ccc(-c2cncc(OC)n2)cn1)c1ccnc(NS(=O)(=O)C2CC2)n1 (stereo not shown) [Example P159]", "+++ (>60 fold (+++))"),
    ("CCOc1cncc(-c2ccc(NC(=O)C(C)(C)c3nc(NS(=O)(=O)C4CC4)ncc3F)cc2)n1 [Example P68]", "++ (>30-60 fold (++))"),
    ("CCOc1cncc(-c2ccc(NC(=O)C3(c4ccnc(NS(=O)(=O)C5CC5)n4)CC3)cc2)n1 [Example P83]", "+++ (>60 fold (+++))"),
    ("CCOc1cncc(-c2ccc(NC(=O)C3(c4ccnc(NS(=O)(=O)C5CC5)n4)CCOCC3)nc2)n1 [Example P115]", "+++ (>60 fold (+++))"),
]

Then this compound:
[in] I am curious: what Selectivity (fold selectivity between CTPS1 and CTPS2) value has been reported for CCOc1cncc(-c2ccc(NC(=O)C(CCOC)c3ccnc(NS(=O)(=O)C4CC4)n3)c(F)c2)n1 (stereo not shown) [Example P146] ?
[out] +++ (>60 fold (+++))

----------
Please go through the items and note down their IC50.
Target: human CTPS1 (Homo sapiens, UniProt P17812)
Construct: purchased Proteros biostructures GmbH
Sequence (P17812 1-591): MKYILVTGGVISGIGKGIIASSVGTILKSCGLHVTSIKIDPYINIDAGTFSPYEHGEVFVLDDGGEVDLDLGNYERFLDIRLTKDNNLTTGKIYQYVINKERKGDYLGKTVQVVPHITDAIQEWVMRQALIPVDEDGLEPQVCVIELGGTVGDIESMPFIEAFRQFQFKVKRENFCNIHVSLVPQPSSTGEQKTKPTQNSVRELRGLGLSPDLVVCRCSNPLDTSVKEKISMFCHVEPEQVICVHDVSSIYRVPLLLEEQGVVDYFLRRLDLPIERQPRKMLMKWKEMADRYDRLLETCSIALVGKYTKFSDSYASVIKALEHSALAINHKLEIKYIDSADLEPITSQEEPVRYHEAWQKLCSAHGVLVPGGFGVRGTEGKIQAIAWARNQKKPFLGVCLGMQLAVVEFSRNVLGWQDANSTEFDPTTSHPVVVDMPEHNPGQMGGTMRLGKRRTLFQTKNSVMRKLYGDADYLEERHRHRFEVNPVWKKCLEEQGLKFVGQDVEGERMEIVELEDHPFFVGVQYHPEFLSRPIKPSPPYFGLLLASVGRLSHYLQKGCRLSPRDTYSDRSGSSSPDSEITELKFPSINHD
Assay: Human CTPS1 enzyme inhibition (ADP-Glo Max assay)
Type: biochemical
Details: Table 25, compounds wherein R1 is C1-5fluoroalkyl, read-out: CTPS1 (Human CTPS1 Enzyme Inhibition data grouped by potency range)

[in] Return IC50 measured with human CTPS1 (Homo sapiens, UniProt P17812) given this molecule: CCOc1cncc(-c2ccc(NC(=O)C(F)(CC)c3ccnc(NS(=O)(=O)CC(F)F)n3)nc2)n1 (centres unmarked) [Example P284]
[out] ≤ 100 nM

[in] Consider next the molecule CCOc1cncc(-c2ccc(NC(=O)C3(c4ccnc(NS(=O)(=O)CC(F)F)n4)CCOCC3)nc2)n1 [Example P271] in the same way.
[out] ≤ 100 nM
